- assayMethodText: Cytotoxicity in NGF-differentiated PC12 cells, WST-8 cell viability assay
- Assay type: cell-based
- cond: rat, WST-8, 24 h exposure, mean ± SEM of 3–4 experiments, read-out: LC50 (approximated), cell viability
Exercise: state measured CC50 at 24 h for each of the compounds provided.
Numbers only, in mM.

For orientation, consider the following solved cases.
CCCCC(NCC)C(=O)c1ccccc1 (stereo not drawn) [NEH, N-ethyl-hexedrone] : 3.28
CCNC(C)C(=O)c1ccccc1 (stereo not drawn) [NEC, N-ethyl-cathinone] : 3.97
CCNC(CC)C(=O)c1ccccc1 (stereo not drawn) [NEB, N-ethyl-buphedrone] : 6.24

Please supply CC50 at 24 h for each of the following items, keeping them in order.
1. CCCC(NCC)C(=O)c1ccccc1 (stereo not drawn) [NEPD, N-ethyl-pentedrone]
2. CCCCCC(NCC)C(=O)c1ccccc1 (stereo not drawn) [NEHP, N-ethyl-heptedrone]
3. CN[C@@H](C)Cc1ccccc1 [Meth, methamphetamine, reference compound]

Result:
3.82
1.26
8.73

----------
- systemUnderTest: hSERT (Homo sapiens, UniProt P31645)
- Construct: expressed in transfected cells; host or cells: HEK293
- Sequence (P31645 whole entry): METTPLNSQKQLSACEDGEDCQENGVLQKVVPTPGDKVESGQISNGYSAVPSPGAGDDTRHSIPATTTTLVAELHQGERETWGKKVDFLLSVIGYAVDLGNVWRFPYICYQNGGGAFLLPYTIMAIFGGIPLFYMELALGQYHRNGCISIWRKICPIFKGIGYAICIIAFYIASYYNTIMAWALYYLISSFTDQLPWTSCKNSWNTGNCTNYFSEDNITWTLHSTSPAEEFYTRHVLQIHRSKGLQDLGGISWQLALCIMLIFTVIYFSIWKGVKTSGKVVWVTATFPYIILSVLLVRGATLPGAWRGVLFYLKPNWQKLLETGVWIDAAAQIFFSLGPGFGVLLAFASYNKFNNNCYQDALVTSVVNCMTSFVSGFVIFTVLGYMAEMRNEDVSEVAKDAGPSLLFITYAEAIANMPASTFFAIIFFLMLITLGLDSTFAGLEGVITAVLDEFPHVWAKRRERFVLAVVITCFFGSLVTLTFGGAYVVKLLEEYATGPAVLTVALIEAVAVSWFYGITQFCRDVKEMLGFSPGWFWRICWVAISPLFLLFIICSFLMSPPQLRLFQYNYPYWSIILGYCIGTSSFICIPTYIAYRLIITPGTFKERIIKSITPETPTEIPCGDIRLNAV
- assayMethodText: Monoamine uptake inhibition, [3H]5-HT uptake at hSERT in transfected HEK293 cells
- Format: cell-based
- cond: transfected HEK293 cells; mean ± SEM of four independent experiments; read-out: [3H]5-HT uptake at hSERT, IC50
measure: IC50

Request: # query: IC50 | item CCCC(C(=O)c1ccccc1)N1CCCC1 (stereo not drawn) [α-PVP, alpha-pyrrolidinovalerophenone, reference compound] | system: hSERT (Homo sapiens, UniProt P31645)
Result: > 100 µM

----------
- systemUnderTest: hSERT (Homo sapiens)
- Construct: expressed in transfected cells; host or cells: HEK293
- assayMethodText: Transporter binding, [3H]imipramine binding at hSERT (HEK293 membranes)
Exercise: state measured pKi for each of the compounds provided.
Answers are plain numbers, as −log10 of the molar value.

For orientation, consider the following solved cases.
CCCCCC(NCC)C(=O)c1ccccc1 (centres unmarked) : 4.39
CCCC(NCC)C(=O)c1ccccc1 (centres unmarked) : 4.61
CCNC(CC)C(=O)c1ccccc1 (centres unmarked) : 4.05

Now for a further compound.
Request: # query: pKi | item CCCCC(NCC)C(=O)c1ccccc1 (centres unmarked) | system: hSERT (Homo sapiens)
Result: 4.44

----------
Exercise: state measured hDAT/hSERT inhibition ratio for each of the compounds provided.
- systemUnderTest: hDAT (Homo sapiens)
- Construct: expressed in transfected cells; host or cells: HEK293
- assayMethodText: Monoamine uptake inhibition, [3H]MPP+ uptake at hDAT in transfected HEK293 cells
- Type: cell-based
- cond: 1/DAT IC50:1/SERT IC50; calculated with the original raw data
Give bare numbers.

For orientation, consider the following solved cases.
CCNC(CC)C(=O)c1ccccc1 (stereo not drawn) [NEB, N-ethyl-buphedrone] : 168
CCCCC(NCC)C(=O)c1ccccc1 (stereo not drawn) [NEH, N-ethyl-hexedrone] : 1457
CCNC(C)C(=O)c1ccccc1 (stereo not drawn) [NEC, N-ethyl-cathinone] : 157
CCCC(C(=O)c1ccccc1)N1CCCC1 (stereo not drawn) [α-PVP, alpha-pyrrolidinovalerophenone, reference compound] : 3222
CCCC(NCC)C(=O)c1ccccc1 (stereo not drawn) [NEPD, N-ethyl-pentedrone] : 844

Request: Request the reported hDAT/hSERT inhibition ratio associated with CCCCCC(NCC)C(=O)c1ccccc1 (stereo not drawn) [NEHP, N-ethyl-heptedrone]
Result: 426

----------
- systemUnderTest: hDAT (Homo sapiens)
- Construct: expressed in transfected cells; host or cells: HEK293
- assayMethodText: Monoamine uptake inhibition, [3H]MPP+ uptake at hDAT in transfected HEK293 cells
- Format: cell-based
- cond: transfected HEK293 cells; mean ± SEM of four independent experiments; read-out: [3H]MPP+ uptake at hDAT, IC50
measure: pIC50
One number for each entry, as −log10 of the molar value.

Request: Request the reported pIC50 associated with CCCC(C(=O)c1ccccc1)N1CCCC1 (stereo not drawn) [α-PVP, alpha-pyrrolidinovalerophenone, reference compound]
Result: 6.91

----------
- systemUnderTest: hSERT (Homo sapiens, UniProt P31645)
- Construct: expressed in transfected cells; host or cells: HEK293
- assayMethodText: Monoamine uptake inhibition, [3H]5-HT uptake at hSERT in transfected HEK293 cells
- Assay type: cell-based
Exercise: state measured pIC50 for each of the molecules provided.
One number for each entry, as −log10 of the molar value.

CCCC(NCC)C(=O)c1ccccc1 (centres unmarked) : 4.12

Now for a further molecule.
Request: Request the reported pIC50 associated with CCNC(CC)C(=O)c1ccccc1 (centres unmarked)
Result: 4.29

----------
- systemUnderTest: hDAT (Homo sapiens)
- Construct: expressed in transfected cells; host or cells: HEK293
- assayMethodText: Monoamine uptake inhibition, [3H]MPP+ uptake at hDAT in transfected HEK293 cells
- Type: cell-based
measure: pIC50
Give bare numbers, as −log10 of the molar value.

CCNC(CC)C(=O)c1ccccc1 (centres unmarked) [NEB, N-ethyl-buphedrone] : 6.52
CCNC(C)C(=O)c1ccccc1 (centres unmarked) [NEC, N-ethyl-cathinone] : 5.84
CCCCC(NCC)C(=O)c1ccccc1 (centres unmarked) [NEH, N-ethyl-hexedrone] : 7.14
CCCCCC(NCC)C(=O)c1ccccc1 (centres unmarked) [NEHP, N-ethyl-heptedrone] : 6.60

Now for a further compound.
Request: Request the reported pIC50 associated with CCCC(NCC)C(=O)c1ccccc1 (centres unmarked) [NEPD, N-ethyl-pentedrone]
Result: 7.04

----------
- systemUnderTest: hDAT (Homo sapiens)
- Construct: expressed in transfected cells; host or cells: HEK293
- assayMethodText: Transporter binding, [3H]WIN 35,428 binding at hDAT (HEK293 membranes)
measure: pKi
Give bare numbers, as −log10 of the molar value.

For orientation, consider the following solved cases.
CCCC(NCC)C(=O)c1ccccc1 (centres unmarked) [NEPD, N-ethyl-pentedrone] : 7.38
CCNC(CC)C(=O)c1ccccc1 (centres unmarked) [NEB, N-ethyl-buphedrone] : 6.70
CCNC(C)C(=O)c1ccccc1 (centres unmarked) [NEC, N-ethyl-cathinone] : 5.63
CCCCCC(NCC)C(=O)c1ccccc1 (centres unmarked) [NEHP, N-ethyl-heptedrone] : 6.97

Now for a further compound.
Request: Request the reported pKi associated with CCCCC(NCC)C(=O)c1ccccc1 (centres unmarked) [NEH, N-ethyl-hexedrone]
Result: 6.92

----------
- systemUnderTest: hSERT (Homo sapiens, UniProt P31645)
- Construct: expressed in transfected cells; host or cells: HEK293
- assayMethodText: Transporter binding, [3H]imipramine binding at hSERT (HEK293 membranes)
- cond: membranes of transfected HEK293 cells; mean ± SEM of four independent experiments; read-out: [3H]imipramine binding at hSERT, Ki
- Experimental: For membrane preparation, cells were harvested from 80 to 90% confluent dishes. […] Protein concentration was determined using the Bio-Rad Protein Reagent (Bio-Rad Laboratories, Hercules, CA). Binding assays were performed as described.[6] […] Thereafter, the filters are placed into vials, a scintillation cocktail is added and trapped radioactivity is quantified by liquid scintillation counting. […]
measure: Ki

Request: Request the reported Ki associated with CCCC(C(=O)c1ccccc1)N1CCCC1 (stereo not drawn) [α-PVP, alpha-pyrrolidinovalerophenone, reference compound]
Result: > 100 µM

----------
- systemUnderTest: hDAT (Homo sapiens, UniProt Q01959)
- Construct: expressed in transfected cells; host or cells: HEK293
- Sequence (Q01959 whole entry): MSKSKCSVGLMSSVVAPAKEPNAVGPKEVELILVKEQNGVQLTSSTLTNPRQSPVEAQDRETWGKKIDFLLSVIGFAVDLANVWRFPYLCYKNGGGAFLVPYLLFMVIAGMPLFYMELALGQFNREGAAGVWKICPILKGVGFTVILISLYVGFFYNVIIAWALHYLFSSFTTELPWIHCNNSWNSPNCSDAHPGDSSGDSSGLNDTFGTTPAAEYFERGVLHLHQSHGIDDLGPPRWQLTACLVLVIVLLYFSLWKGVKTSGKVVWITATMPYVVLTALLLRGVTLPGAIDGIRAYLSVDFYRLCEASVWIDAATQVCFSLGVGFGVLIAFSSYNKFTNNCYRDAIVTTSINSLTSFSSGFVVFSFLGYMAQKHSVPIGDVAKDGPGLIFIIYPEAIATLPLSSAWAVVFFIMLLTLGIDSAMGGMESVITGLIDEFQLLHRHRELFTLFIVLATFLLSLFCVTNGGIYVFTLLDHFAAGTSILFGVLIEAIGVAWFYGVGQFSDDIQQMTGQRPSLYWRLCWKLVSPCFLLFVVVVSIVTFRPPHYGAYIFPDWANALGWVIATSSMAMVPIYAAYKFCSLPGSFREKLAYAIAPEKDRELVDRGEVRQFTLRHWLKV
- assayMethodText: Transporter binding, [3H]WIN 35,428 binding at hDAT (HEK293 membranes)
- cond: membranes of transfected HEK293 cells; mean ± SEM of four independent experiments; read-out: [3H]WIN 35,428 binding at hDAT, Ki
measure: pKi
Answers are plain numbers, as −log10 of the molar value.

Request: Request the reported pKi associated with CCCC(C(=O)c1ccccc1)N1CCCC1 (stereo not drawn) [α-PVP, alpha-pyrrolidinovalerophenone, reference compound]
Result: 7.72

----------
- systemUnderTest: hSERT (Homo sapiens)
- Construct: expressed in transfected cells; host or cells: HEK293
- assayMethodText: Monoamine uptake inhibition, [3H]5-HT uptake at hSERT in transfected HEK293 cells
- Type: cell-based
pIC50: −log10 of the molar value.
Exercise: state measured pIC50 for each of the compounds provided.

Please supply pIC50 for each of the following items, keeping them in order.
1. CCCCC(NCC)C(=O)c1ccccc1 (stereo not drawn)
2. CCNC(C)C(=O)c1ccccc1 (stereo not drawn)
3. CCCCCC(NCC)C(=O)c1ccccc1 (stereo not drawn)

Result:
1. < 4.00
2. < 4.00
3. < 4.00
